- assay_name: MTS dye cytotoxicity assay, normal HFF cells
- Assay type: cell-based
- condition_context: human, HFF cells (normal foreskin fibroblasts)
IC50 at 72 h values by entry

get_value(item= CC1=C(C)C(=O)O[C@@H]([C@](C)(O)[C@]2(O)CC[C@@]3(O)[C@@H]4[C@@H](O)C=C5CC=CC(=O)[C@]5(C)[C@H]4CC[C@]23C)C1 , readout=IC50 at 72 h) returns > 2000 nM

Per the records, this molecule ( CC1=C(C)C(=O)O[C@@H]([C@](C)(O)[C@]2(O)CC[C@@]3(O)[C@@H]4C[C@H]5O[C@]56[C@@H](O)C=CC(=O)[C@]6(C)[C@H]4CC[C@]23C)C1 [Compound 12, 4β-hydroxywithanolide E] ) has IC50 at 72 h equal to > 2000 nM
